assayed system: ROCK2 (Homo sapiens (Human), UniProt O75116)
Sequence (O75116 1-553): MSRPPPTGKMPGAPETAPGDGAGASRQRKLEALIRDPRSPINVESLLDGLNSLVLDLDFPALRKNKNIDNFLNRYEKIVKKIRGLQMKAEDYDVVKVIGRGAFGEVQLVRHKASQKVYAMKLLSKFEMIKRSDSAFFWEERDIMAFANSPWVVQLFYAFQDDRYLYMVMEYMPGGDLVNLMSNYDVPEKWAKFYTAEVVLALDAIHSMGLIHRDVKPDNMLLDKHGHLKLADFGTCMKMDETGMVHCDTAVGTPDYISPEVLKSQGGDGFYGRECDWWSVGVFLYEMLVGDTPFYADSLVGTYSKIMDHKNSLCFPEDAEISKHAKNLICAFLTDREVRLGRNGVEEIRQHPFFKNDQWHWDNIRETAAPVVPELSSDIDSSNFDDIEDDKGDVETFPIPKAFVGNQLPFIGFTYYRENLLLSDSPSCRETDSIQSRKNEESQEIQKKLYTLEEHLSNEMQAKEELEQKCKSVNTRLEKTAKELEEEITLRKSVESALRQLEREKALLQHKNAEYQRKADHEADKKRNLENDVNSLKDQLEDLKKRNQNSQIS
pIC50: −log10 of the molar value.
Give True when the value for pIC50 is at least 7. Give False when it is less.

Previously resolved entries follow.
>  <compound>
N#CC1CN(C(=O)c2cc3ccc(-c4nccc(Nc5ccc(-c6cn[nH]c6)cc5)n4)cc3[nH]2)C1

>  <assayed system>
ROCK2 (Homo sapiens (Human), UniProt O75116)

>  <class assignment>
True

$$$$
>  <compound>
CCNC(=O)N1Cc2ccc(-c3nccc(Nc4ccc(-c5cn[nH]c5)cc4)n3)cc2C1

>  <assayed system>
ROCK2 (Homo sapiens (Human), UniProt O75116)

>  <class assignment>
False

$$$$
>  <compound>
O=C(NC1CC1)c1cc2ccc(-c3nccc(Nc4ccc5[nH]ncc5c4)n3)cc2[nH]1

>  <assayed system>
ROCK2 (Homo sapiens (Human), UniProt O75116)

>  <class assignment>
True

$$$$

Request: hey, is pIC50 for this one >= 7? `O=C(Nc1ccc2[nH]ncc2c1)c1cc2ccc(-c3nccc(Nc4ccc5[nH]ncc5c4)n3)cc2[nH]1`
Result: True

Request: Likewise for `CN1CCC2(CC1)CCN(C(=O)c1cc3ccc(-c4nccc(Nc5ccc6[nH]ncc6c5)n4)cc3[nH]1)CC2` ?
Result: False

###

# IC50 measurements, system: ROCK2 (Homo sapiens (Human))
Lab book: enter the figure in nM, no units written.

Consider the worked cases shown below.
>  <compound>
CN(C(=O)c1cc2ccc(-c3nccc(Nc4ccc(-c5cn[nH]c5)cc4)n3)cc2[nH]1)C1CCC1

>  <test result>
477

$$$$
>  <compound>
O=C(Nc1ccncc1I)c1cc2ccc(-c3nccc(Nc4ccc(-c5cn[nH]c5)cc4)n3)cc2[nH]1 [TDI01829C]

>  <test result>
97

$$$$
>  <compound>
CN1CCN(C(=O)c2cc3ccc(-c4nccc(Nc5ccc(-c6cn[nH]c6)cc5)n4)cc3[nH]2)CC1

>  <test result>
436

$$$$

Request: Recorded IC50 for `CC(C)NC(=O)c1cc2ccc(-c3nc(Nc4ccc5[nH]ncc5c4)c4ccsc4n3)cc2[nH]1` , please?
Result: 225

Request: Likewise for `O=C(Nc1cccnc1)c1cc2ccc(-c3nccc(Nc4ccc(-c5cn[nH]c5)cc4)n3)cc2[nH]1` ?
Result: 120

###

# IC50 measurements, system: ROCK2 (Homo sapiens (Human), UniProt O75116)
Lab book: enter the figure in nM, no units written.

Consider the worked cases shown below.
>  <compound>
O=C(Nc1ccccc1)c1cc2ccc(-c3nccc(Nc4ccc5[nH]ncc5c4)n3)cc2[nH]1

>  <IC50, nM>
382

$$$$
>  <compound>
CC(NC(=O)c1cc2ccc(-c3nccc(Nc4ccc5[nH]ncc5c4)n3)cc2[nH]1)c1ccccc1 (stereo not shown)

>  <IC50, nM>
109

$$$$
>  <compound>
CN(C)C(=O)c1cc2ccc(-c3nccc(Nc4ccc5[nH]ncc5c4)n3)cc2s1

>  <IC50, nM>
422

$$$$

Turning now to a further record.
Request: Recorded IC50 for `O=C(Nc1ccccn1)c1cc2ccc(-c3nccc(Nc4ccc5[nH]ncc5c4)n3)cc2[nH]1` , please?
Result: 465

###

# pIC50 measurements, system: UniProt O75116
Schema: pIC50 number; meaning minus log10 of the concentration expressed in molar units.

>  <molecule>
N#Cc1cnccc1NC(=O)c1cc2ccc(-c3nccc(Nc4ccc(-c5cn[nH]c5)cc4)n3)cc2[nH]1 [TDI01829B]

>  <test result>
7.09

$$$$
>  <molecule>
CCN(CC)C(=O)c1cc2ccc(-c3ncc(OC)c(Nc4ccc(-c5cn[nH]c5)cc4)n3)cc2[nH]1

>  <test result>
6.47

$$$$

Request: Recorded pIC50 for `Cn1cc(NC(=O)c2cc3ccc(-c4nccc(Nc5ccc6[nH]ncc6c5)n4)cc3[nH]2)cn1` , please?
Result: 7.21

Request: Likewise for O=C(NC1CCOC1)c1cc2ccc(-c3nc(Nc4ccc(-c5cn[nH]c5)cc4)c4sccc4n3)cc2[nH]1 (stereo not shown) ?
Result: 6.58

Reference source: patent US10329282B2
